Recorded Ratio values for a group of compounds are listed next.
- System: Mus musculus
- Measurement Notes: Hypouricemic effect in xanthine/potassium oxalate-induced acute hyperuricemia male Kunming mouse model assessed as decrease ratio of serum uric acid at 10 mg/kg, po measured after 4 hrs relative to control
- Format: functional
// units = %; emit number, no label

# count of solved cases: 5
INSERT INTO assay_data (structure, measurement_units, experimental_value) VALUES
  ('COc1ccccc1-c1cc(C(=O)Nc2ccccc2C(=O)O)nn1Cc1ccccn1', '%', 47.4),
  ('O=C(Nc1ccccc1C(=O)O)c1cc(-c2ccccc2Br)n(Cc2ccccn2)n1', '%', 56.4),
  ('O=C(Nc1ccccc1C(=O)O)c1cc(-c2cccc(Br)c2)n(Cc2ccccn2)n1', '%', 69),
  ('COc1ccc(-c2cc(C(=O)Nc3ccccc3C(=O)O)nn2Cc2ccccn2)cc1', '%', 61.3),
  ('O=C(Nc1ccccc1C(=O)O)c1cc(-c2ccc(Br)cc2)n(Cc2ccccn2)n1', '%', 59);

Query: Need Ratio of `O=C(O)c1ccccc1NC(=O)c1cn(Cc2ccccn2)c2ccccc12` , thanks.
Result: 28.7

Query: Need Ratio of `Cc1ccc(-c2cc(C(=O)Nc3ccccc3C(=O)O)nn2Cc2ccccn2)cc1` , thanks.
Result: 75.1

* * *

- Test System: Solute carrier family 22 member 12 (Homo sapiens, UniProt Q96S37)
- Sequence (Q96S37 whole entry): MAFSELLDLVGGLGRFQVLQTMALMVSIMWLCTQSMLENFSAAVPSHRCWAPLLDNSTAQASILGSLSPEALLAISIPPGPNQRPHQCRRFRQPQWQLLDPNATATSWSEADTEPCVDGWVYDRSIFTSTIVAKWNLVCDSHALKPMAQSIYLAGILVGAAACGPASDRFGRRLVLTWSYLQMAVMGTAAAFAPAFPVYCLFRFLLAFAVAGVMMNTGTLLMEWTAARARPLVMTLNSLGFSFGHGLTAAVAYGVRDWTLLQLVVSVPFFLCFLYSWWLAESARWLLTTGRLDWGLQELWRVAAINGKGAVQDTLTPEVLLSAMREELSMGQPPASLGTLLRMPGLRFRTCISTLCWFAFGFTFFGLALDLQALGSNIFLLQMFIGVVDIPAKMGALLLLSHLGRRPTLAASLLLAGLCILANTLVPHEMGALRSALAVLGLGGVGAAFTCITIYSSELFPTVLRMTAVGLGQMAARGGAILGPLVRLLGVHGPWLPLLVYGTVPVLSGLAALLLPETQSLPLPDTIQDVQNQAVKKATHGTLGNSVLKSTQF
- Measurement Notes: Inhibition of human URAT-1 overexpressed in HEK293 cells assessed as reduction in 14C-uric acid uptake at 10 uM pretreated for 15 mins followed by 14C-uric acid addition measured after 10 mins by a liquid scintillation counter analysis relative to control
- Format: cell-based
- Condition Context: 25 min
Rule: inhibition at 10 µM under 60% gives n, otherwise y.

INSERT INTO results (structure, group_label) VALUES
  ('O=C(Nc1ccccc1C(=O)O)c1cc(-c2csc3ccccc23)n(Cc2ccccn2)n1', 'n'),
  ('COc1cccc(-c2cc(C(=O)Nc3ccccc3C(=O)O)nn2Cc2ccccn2)c1', 'y'),
  ('Cc1cc(C(=O)Nc2ccccc2C(=O)O)nn1Cc1ccccn1', 'n'),
  ('O=C(Nc1ccccc1C(=O)O)c1cc(-c2cccc(Cl)c2)n(Cc2ccccn2)n1', 'n');

Query: Record `O=C(Nc1ccccc1C(=O)O)c1cc(-c2ccccc2F)n(Cc2ccccn2)n1` ; criterion: inhibition at 10 µM no lower than 60%. Met?
Result: n

Data origin: ChEMBL document CHEMBL6182850
